target_entity: Cholinesterase (Equus caballus) (UniProt P81908)
Sequence (P81908 whole entry): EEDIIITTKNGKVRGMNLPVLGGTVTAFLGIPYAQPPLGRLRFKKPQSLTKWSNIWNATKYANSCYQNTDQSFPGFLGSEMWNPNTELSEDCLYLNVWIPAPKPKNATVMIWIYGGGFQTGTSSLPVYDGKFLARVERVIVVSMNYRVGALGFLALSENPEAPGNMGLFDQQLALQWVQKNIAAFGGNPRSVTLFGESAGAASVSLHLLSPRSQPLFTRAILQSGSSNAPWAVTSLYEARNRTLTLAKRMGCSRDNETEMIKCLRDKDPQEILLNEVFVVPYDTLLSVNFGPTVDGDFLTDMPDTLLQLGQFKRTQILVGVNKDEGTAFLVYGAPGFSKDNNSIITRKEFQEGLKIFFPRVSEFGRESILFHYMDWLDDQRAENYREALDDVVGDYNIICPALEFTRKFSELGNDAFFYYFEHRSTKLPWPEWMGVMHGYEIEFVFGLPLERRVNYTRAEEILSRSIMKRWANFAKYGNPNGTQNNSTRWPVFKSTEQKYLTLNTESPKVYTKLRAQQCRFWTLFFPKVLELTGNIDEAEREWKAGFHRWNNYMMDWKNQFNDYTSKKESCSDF
experimental_protocol: Inhibition of BuChE in equine serum using butyrylthiocholine chloride as substrate at 500 uM preincubated with enzyme for 10 mins prior to substrate challenge for 15 mins by Ellman's method
quantity_measured: inhibition (%)
One number for each entry, in %.

Please review the following examples before continuing.
[
  {
    "structure_string": "CCOC(=O)c1ccc2[nH]c(-c3ccc(-n4nc5c(c4C)N(C)S(=O)(=O)c4ccccc4-5)cc3)nc2c1",
    "target_entity": "Cholinesterase (Equus caballus) (UniProt P81908)",
    "inhibition / %": 29.5
  },
  {
    "structure_string": "Cc1c2c(nn1-c1ccc(-c3nc4cc([N+](=O)[O-])ccc4[nH]3)cc1)-c1ccccc1S(=O)(=O)N2C",
    "target_entity": "Cholinesterase (Equus caballus) (UniProt P81908)",
    "inhibition / %": 38.5
  },
  {
    "structure_string": "CN1c2c(nn(-c3ccc(-c4nc5cc([N+](=O)[O-])ccc5[nH]4)cc3)c2-c2ccccc2)-c2ccccc2S1(=O)=O",
    "target_entity": "Cholinesterase (Equus caballus) (UniProt P81908)",
    "inhibition / %": 30.7
  }
]

Please turn your attention to the following entry.
inhibition for Cc1c2c(nn1-c1ccc(-c3nc4cncnc4[nH]3)cc1)-c1ccccc1S(=O)(=O)N2C is 35.5

====

experimental_protocol: Inhibition of electric eel AChE type VI-S using acetylthiocholine iodide as substrate preincubated with enzyme for 10 mins prior to substrate challenge for 15 mins by Ellman's method
Design: species or system Electrophorus electricus
quantity_measured: pIC50
Numbers only, as −log10 of the molar value.

Please review the following examples before continuing.
[
  {
    "molecule": "CN1c2c(nn(-c3ccc(-c4nc5ccccc5o4)cc3)c2-c2ccccc2)-c2ccccc2S1(=O)=O",
    "pIC50": 7.27
  },
  {
    "molecule": "CN1c2c(nn(-c3ccc(-c4nc5cc(Cl)ccc5[nH]4)cc3)c2-c2ccccc2)-c2ccccc2S1(=O)=O",
    "pIC50": 5.52
  },
  {
    "molecule": "CN1c2c(nn(-c3ccc(-c4nc5ccccc5[nH]4)cc3)c2-c2ccccc2)-c2ccccc2S1(=O)=O",
    "pIC50": 7.96
  },
  {
    "molecule": "Cc1ccc2[nH]c(-c3ccc(-n4nc5c(c4C)N(C)S(=O)(=O)c4ccccc4-5)cc3)nc2c1",
    "pIC50": 5.12
  }
]

Hey, quick one: what's pIC50 for each of these?
1. Cc1c2c(nn1-c1ccc(-c3nc4cc(Cl)ccc4[nH]3)cc1)-c1ccccc1S(=O)(=O)N2C
2. CN(C)C(=O)Oc1cccc([N+](C)(C)C)c1 [NEOSTIGMINE]
3. CCOC(=O)c1ccc2[nH]c(-c3ccc(-n4nc5c(c4C)N(C)S(=O)(=O)c4ccccc4-5)cc3)nc2c1
4. Cc1cc2nc(-c3ccc(-n4nc5c(c4-c4ccccc4)N(C)S(=O)(=O)c4ccccc4-5)cc3)[nH]c2cc1C
5. Cc1c2c(nn1-c1ccc(-c3nc4cncnc4[nH]3)cc1)-c1ccccc1S(=O)(=O)N2C
6. CCOC(=O)c1ccc2[nH]c(-c3ccc(-n4nc5c(c4-c4ccccc4)N(C)S(=O)(=O)c4ccccc4-5)cc3)nc2c1
7. Cc1c2c(nn1-c1ccc(-c3nc4ccccc4[nH]3)cc1)-c1ccccc1S(=O)(=O)N2C

[5.99, 4.65, 6.00, 5.42, 5.71, 7.89, 5.54]

Hey, quick one: what's pIC50 for each of these?
1. COc1ccc2[nH]c(-c3ccc(-n4nc5c(c4-c4ccccc4)N(C)S(=O)(=O)c4ccccc4-5)cc3)nc2c1
2. Cc1cc2nc(-c3ccc(-n4nc5c(c4C)N(C)S(=O)(=O)c4ccccc4-5)cc3)[nH]c2cc1C

5.15
7.39
